- Tested on: barnyardgrass (Echinochloa crus-galli)
- assay details: Test B flooded paddy test, visual rating 0-100
- assay setup: Flood, 250 g ai/ha, applied to paddy water, rated after 13 to 15 days
reported metric: Barnyardgrass plant response rating (0 to 100 scale)

{"compound": "O=C(Nc1cccc(F)c1F)C1C(c2ccccc2)CC(C(F)(F)F)=[N+]1[O-] (racemic)", "assay result": 0}
{"compound": "CC1=[N+]([O-])[C@@H](C(=O)Nc2cccc(F)c2F)[C@H](c2cccc(OC(C)C)c2)C1", "assay result": 70}
{"compound": "COc1cc(C2CC(C)=[N+]([O-])C2C(=O)Nc2cccc(F)c2F)cc(C)n1 (racemic)", "assay result": 55}
{"compound": "CC1=[N+]([O-])C(C(=O)Nc2ccccc2C(F)(F)F)C(c2ccc(C(F)(F)F)cc2)C1 (racemic)", "assay result": 20}
{"compound": "CC1=[N+]([O-])[C@@H](C(=O)Nc2cccc(F)c2F)[C@H](c2ccc(Cl)cc2)C1 (relative stereo)", "assay result": 65}
{"compound": "CC1=[N+]([O-])C(C(=O)Nc2cccc(F)c2F)C(c2ccc(C)c(C(F)(F)F)c2)C1 (racemic)", "assay result": 55}
{"compound": "CC1=[N+]([O-])C(C(=O)Nc2cccc(F)c2F)C(c2cccc(C(F)(F)F)c2C)C1 (racemic)", "assay result": 60}
{"compound": "CC1=[N+]([O-])C(C(=O)Nc2cccc(F)c2F)C(c2ccc(F)cc2)C1 (racemic)", "assay result": 85}
{"compound": "CC1=[N+]([O-])C(C(=O)Nc2cccc(F)c2F)C(c2ccc(C(F)(F)F)nc2)C1 (racemic)", "assay result": 40}
{"compound": "CC1=[N+]([O-])C(C(=O)Nc2cccc(F)c2C#N)C(c2ccc(C(F)(F)F)cc2)C1 (racemic)", "assay result": 35}
{"compound": "CC1=[N+]([O-])C(C(=O)Nc2cccc(F)c2F)C(c2cccc(C)c2C)C1 (racemic)", "assay result": 75}
{"compound": "CC1=[N+]([O-])C(C(=O)Nc2cccc(F)c2F)C(c2cccc(Cl)c2F)C1 (stereo not drawn)", "assay result": 60}
{"compound": "CC1=[N+]([O-])[C@@H](C(=O)Nc2cccc(F)c2F)[C@H](c2cccc(C(F)(F)F)c2)C1", "assay result": 75}
{"compound": "COc1cccc(C2CC(C)=[N+]([O-])C2C(=O)Nc2cccc(F)c2F)n1 (racemic)", "assay result": 15}
{"compound": "CC1=[N+]([O-])C(C(=O)Nc2cccc(F)c2F)C(c2cccc(C(F)(F)F)n2)C1 (stereo not drawn)", "assay result": 15}
